Value source: paper PMC7145548

Biological target: T1, hsRosR (Halobacterium salinarum (Halobacterium …, UniProt Q9HSF4 1-116))
T1 sequence: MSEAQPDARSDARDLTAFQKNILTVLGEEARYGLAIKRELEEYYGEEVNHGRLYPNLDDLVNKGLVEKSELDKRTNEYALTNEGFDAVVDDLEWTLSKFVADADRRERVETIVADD
Assay: fluorescence anisotropy
Recorded measurements of Kd, one per entry
Give the number; nM is assumed, so skip it.

Please review the entries below; each comes with its answer.
INSERT INTO results (binder, test_value) VALUES
  ('S3 (dsDNA) DNA 1: GCACATGTAAGTCTATTGACATGTTCTTTCCCTCG DNA 2: CGAGGGAAAGAACATGTCAATAGACTTACATGTGC', 68),
  ('S4 (35 bp) (dsDNA) DNA 1: GCCCGAAGTGTAAACGCGTTGACATGTGGTGCTGG DNA 2: CCAGCACCACATGTCAACGCGTTTACACTTCGGGC', 91.6),
  ('S2 (dsDNA) DNA 1: GCGCTCATGTCAACCTTCTTACACTTCCTCTCCCG DNA 2: CGGGAGAGGAAGTGTAAGAAGGTTGACATGAGCGC', 60.1);

Continue with the binder presented below.
Q) Which Kd is reported for this binder? S5 (35 bp) (dsDNA) DNA 1: GCGAAGTGTCATCCCTCTTACATGACTTGTCTTGG DNA 2: CCAAGACAAGTCATGTAAGAGGGATGACACTTCGC
A) 99.5
